growth by entry:
System: MDA-MB-231 breast
Test: NCI-60 one-dose screen, 48 h (100 = growth as untreated, 0 = no growth, -100 = all killed)
Details: 10 µM unless noted
About 83,000 compounds went through this panel and 20% of them were active in at least one assay; those are over-represented in the sample as a whole.
Kindly provide the numeric value in % only, without the unit symbol.

Use the examples below as a reference point.
COc1ccc(/C(C)=C(/c2ccc(OCCCN(C)C)cc2)c2ccc(OC(=O)c3ccccc3)cc2)cc1 = 71.1
CC/C=C\C[C@H](O)C/C=C1/C(=O)C=C[C@@H]1C/C=C\CCCC(=O)O = 56.7

Continue with the next compound.
Report measured growth; entry is O=C(Nc1ncc(Cc2ccccc2)s1)c1ccc2c(c1)OCCCO2 44

---

Tested on: PC-3 prostate
Experiment: NCI-60 one-dose screen, 48 h
Conditions: 10 µM unless noted
About 83,000 compounds went through this panel and 20% of them were active in at least one assay; those are over-represented in the sample as a whole. Calls of active or inactive are those of the source. How the source made its calls: active means growth percent below 10; inactive means the rest.
Your answer must be one of the following: active, inactive

Field: example entries. Status: answers known.
CN(CCCNC(=O)CCOCCOCCOCCNC(=O)Cc1ccc2ccc3cccc4ccc1c2c34)CCCNc1cc(-c2ccc3ccccc3c2)nc2ccccc12 = active
CC1CCN(C(=S)SCC(=O)NC(=O)c2ccccc2)CC1 = inactive
C=C1C(=O)O[C@H]2[C@H]1CC/C(COC(=O)/C=C\C(=O)NCc1ccc(Cn3c(=O)sn(CCCl)c3=O)cc1)=C\CC[C@@]1(C)O[C@@H]21 = inactive
CCOC(=O)C#Cc1c(C(=O)OCC)nnn1Cc1ccc(C(F)(F)F)cc1 = inactive

Which outcome was entered for the compound COc1ccc(Oc2nc(Nc3ccc(N4CCOCC4)cc3)ncc2NC(=O)Nc2cc(OC)cc(OC)c2)cc1 in this test? inactive

Which outcome was entered for the compound COc1ccc2c(c1)/C(=N/c1n[nH]c(=S)s1)C(=O)N2 in this test? inactive

Which outcome was entered for the compound CC1(C)N=C(N)N=C(N)N1c1ccc(CCCCc2ccccc2)c(Cl)c1 in this test? active

Which outcome was entered for the compound O=C(/C=C/c1ccccc1)c1ccc(Nc2nc(Nc3ccc(F)cc3)nc(Nc3ccc(Cl)cc3)n2)cc1 in this test? inactive

Which outcome was entered for the compound CN(Cc1cc(Br)cc(Br)c1O)Cc1cc(Br)cc(Br)c1O in this test? inactive

Which outcome was entered for the compound C=C(c1ccc(OC)c(/C=C/C(=O)c2ccc3c(c2)OCO3)c1)c1cc(OC)c(OC)c(OC)c1 in this test? inactive

Which outcome was entered for the compound N#Cc1ccc(O)c(C2=NCC(Cc3ccccc3)O2)c1 (stereo not drawn) in this test? inactive

Which outcome was entered for the compound CCN1C(=O)N(CC)C2C1NN=c1s/c(=C\c3ccc(C(F)(F)F)cc3)c(=O)n12 (stereo not drawn) in this test? inactive

Which outcome was entered for the compound COc1ccc2nc(Cl)c(/C=C3\CC(c4ccccc4)=NN(c4ccccc4)C3=O)cc2c1 in this test? inactive

Which outcome was entered for the compound O=C(C1=Cc2cc3ccccc3n2Cc2cnnn21)c1ccc(O)cc1 in this test? inactive

Which outcome was entered for the compound CC1=C(C(=O)Nc2nc(-c3ccc(Cl)cc3)cs2)[C@H](c2ccc(O)cc2)NC(=O)N1 in this test? inactive

Which outcome was entered for the compound CN(C)S(=O)(=O)Oc1ccc(-c2sc3cc(OS(=O)(=O)N(C)C)ccc3c2C(=O)c2ccc(OCCN3CCCCC3)cc2)cc1 in this test? inactive

Which outcome was entered for the compound CCOC(=O)C(=Cc1ccc(-c2ccccc2)cc1)C(=O)OCC in this test? inactive

Which outcome was entered for the compound CSc1nc(C)c([N+](=O)[O-])c(N)n1 in this test? inactive

Which outcome was entered for the compound C#COc1cccc(Nc2ncnc3cc(NC(=O)[C@@H](C)Cl)ccc23)c1 in this test? active
